Molecular target: Voltage-gated inwardly rectifying potassium channel KCNH2 (Homo sapiens, UniProt Q12809); also: in other assays of this panel Not Active means under 50% inhibition at 10 µM
Sequence (Q12809 whole entry): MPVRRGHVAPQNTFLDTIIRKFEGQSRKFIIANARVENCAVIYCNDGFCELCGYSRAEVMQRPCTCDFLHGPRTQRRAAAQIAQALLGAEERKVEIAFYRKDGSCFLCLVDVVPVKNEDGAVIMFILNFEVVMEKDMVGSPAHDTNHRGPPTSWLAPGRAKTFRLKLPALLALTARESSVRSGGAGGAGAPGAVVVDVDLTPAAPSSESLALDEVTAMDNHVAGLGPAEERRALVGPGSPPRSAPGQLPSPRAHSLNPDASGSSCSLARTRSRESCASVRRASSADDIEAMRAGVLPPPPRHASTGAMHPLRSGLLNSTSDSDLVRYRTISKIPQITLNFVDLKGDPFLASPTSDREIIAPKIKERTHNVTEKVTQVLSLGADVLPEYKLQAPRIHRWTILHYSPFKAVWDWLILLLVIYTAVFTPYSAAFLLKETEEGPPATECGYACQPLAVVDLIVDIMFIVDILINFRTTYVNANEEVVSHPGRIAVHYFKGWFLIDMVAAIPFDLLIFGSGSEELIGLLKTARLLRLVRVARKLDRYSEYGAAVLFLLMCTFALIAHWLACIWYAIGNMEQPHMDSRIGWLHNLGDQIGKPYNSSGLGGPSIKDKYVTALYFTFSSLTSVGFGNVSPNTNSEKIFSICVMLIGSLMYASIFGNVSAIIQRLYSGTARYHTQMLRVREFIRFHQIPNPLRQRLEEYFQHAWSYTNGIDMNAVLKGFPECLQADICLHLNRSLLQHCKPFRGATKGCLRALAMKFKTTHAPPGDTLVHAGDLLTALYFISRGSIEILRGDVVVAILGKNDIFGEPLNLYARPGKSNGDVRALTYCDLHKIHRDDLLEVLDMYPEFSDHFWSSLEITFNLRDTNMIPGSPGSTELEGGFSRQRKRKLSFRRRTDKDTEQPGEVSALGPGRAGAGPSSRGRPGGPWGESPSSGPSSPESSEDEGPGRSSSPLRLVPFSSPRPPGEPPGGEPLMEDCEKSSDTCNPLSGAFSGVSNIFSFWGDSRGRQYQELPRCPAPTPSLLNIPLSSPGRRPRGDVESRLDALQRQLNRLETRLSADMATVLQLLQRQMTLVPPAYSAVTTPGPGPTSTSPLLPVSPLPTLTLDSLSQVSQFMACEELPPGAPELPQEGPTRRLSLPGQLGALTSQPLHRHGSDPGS
Settings: hek293
measured.quantity: Ki

C/C=C1\[C@H]2C=C(C)C[C@]1(N)c1ccc(=O)[nH]c1C2 [HUPERZINE A]
Not Active
CN1CCC[C@H]1c1cccnc1 [NICOTINE]
Not Active
NC(=O)c1ncn([C@@H]2O[C@H](CO)[C@@H](O)[C@H]2O)n1 [RIBAVIRIN]
Not Active
Oc1cccc2cccnc12 [OXYQUINOLINE]
Not Active
C[C@]12Cc3c[nH]nc3C[C@@H]1CC[C@@H]1[C@@H]2CC[C@@]2(C)[C@H]1CC[C@]2(C)O [STANOZOLOL]
Not Active
CCC[C@@H]1C[C@@H](C(=O)N[C@@H]([C@H]2O[C@H](SC)[C@H](O)[C@@H](O)[C@H]2O)[C@@H](C)O)N(C)C1 [LINCOMYCIN]
Not Active
CC(C)(C)NCC(O)c1ccc(O)c(CO)c1 (centres undefined) [ALBUTEROL]
Not Active
CN[C@H](CC(C)C)C(=O)N[C@H]1C(=O)N[C@@H](CC(N)=O)C(=O)N[C@H]2C(=O)N[C@H]3C(=O)N[C@H](C(=O)N[C@H](C(=O)O)c4cc(O)cc(O)c4-c4cc3ccc4O)[C@H](O)c3ccc(c(Cl)c3)Oc3cc2cc(c3O[C@@H]2O[C@H](CO)[C@@H](O)[C@H](O)[C@H]2O[C@H]2C[C@](C)(N)[C@H](O)[C@H](C)O2)Oc2ccc(cc2Cl)[C@H]1O [VANCOMYCIN]
Not Active
Clc1ccc(C(c2ccccc2Cl)C(Cl)Cl)cc1 (centres undefined) [MITOTANE]
Not Active
COS(C)(=O)=O [METHANESULFONIC ACID METHYL ESTER]
Not Active
Oc1c(Cl)cc(Cl)cc1Sc1cc(Cl)cc(Cl)c1O [BITHIONOL]
Not Active
CO[C@@H]1[C@@H](O[C@@H]2O[C@H](C)[C@@H](O[C@H]3C[C@@](C)(O)[C@@H](OC(=O)CC(C)C)[C@H](C)O3)[C@H](N(C)C)[C@H]2O)[C@@H](CC=O)C[C@@H](C)[C@@H](O)/C=C/C=C/C[C@@H](C)OC(=O)C[C@H]1O [KITASAMYCIN]
Not Active
NCC(=O)O [GLYCINE]
Not Active
CN(N=O)C(=O)N[C@@H](C=O)[C@@H](O)[C@H](O)[C@H](O)CO [STREPTOZOCIN]
Not Active
CCOC(=O)OC(C)OC1=C(C(=O)Nc2ccccn2)N(C)S(=O)(=O)c2ccccc21 (centres undefined) [AMPIROXICAM]
Not Active
C=C1CC[C@H](O)C/C1=C/C=C1\CCC[C@]2(C)[C@@H]([C@H](C)/C=C/[C@H](C)C(C)C)CC[C@@H]12 [ERGOCALCIFEROL]
Not Active
CC[C@H]1OC(=O)[C@H](C)[C@@H](O[C@H]2C[C@@](C)(OC)[C@@H](O)[C@H](C)O2)[C@H](C)[C@@H](O[C@@H]2O[C@H](C)C[C@H](N(C)C)[C@H]2O)[C@](C)(O)C[C@@H](C)/C(=N\OCOCCOC)[C@H](C)[C@@H](O)[C@]1(C)O [ROXITHROMYCIN]
Not Active
CC(=O)S[C@@H]1CC2=CC(=O)CC[C@]2(C)[C@H]2CC[C@@]3(C)[C@@H](CC[C@@]34CCC(=O)O4)[C@H]12 [SPIRONOLACTONE]
Not Active
C=CC[C@@H]1/C=C(\C)C[C@H](C)C[C@H](OC)[C@H]2O[C@@](O)(C(=O)C(=O)N3CCCC[C@H]3C(=O)O[C@H](/C(C)=C/[C@@H]3CC[C@@H](O)[C@H](OC)C3)[C@H](C)[C@@H](O)CC1=O)[C@H](C)C[C@@H]2OC [TACROLIMUS ANHYDROUS]
Not Active
CC(C)(S)[C@@H](N)C(=O)O [PENICILLAMINE]
Not Active
C=C1[C@@H]2CCC3[C@@](CC[C@@H]4[C@H](C(=O)O)C[C@@H](O[C@@H]5O[C@H](CO)[C@@H](OS(=O)(=O)[O-])[C@H](OS(=O)(=O)[O-])[C@H]5OC(=O)CC(C)C)C[C@@]34C)(C2)[C@@H]1O.[K+].[K+] (some centres undefined) [ATRACTYLOSIDE]
Not Active
O=C1OC2(c3ccc(O)cc3Oc3cc(O)ccc32)c2ccccc21 [FLUORESCEIN]
Not Active
O=c1cc(-c2ccccc2)oc2c1ccc1ccccc12 [ALPHA-NAPHTHOFLAVONE]
Not Active
Cc1ccc(C(=O)C(C)CN2CCCCC2)cc1 (centres undefined) [TOLPERISONE]
Not Active
CNCCC=C1c2ccccc2CCc2ccccc21 [NORTRIPTYLINE]
Not Active
CC1(C)S[C@@H]2[C@H](NC(=O)[C@H](NC(=O)N3CCNC3=O)c3ccccc3)C(=O)N2[C@H]1C(=O)O [AZLOCILLIN]
Not Active
CCCCOC(=O)c1ccc(N)cc1 [BUTAMBEN]
Not Active
Cc1ncc([N+](=O)[O-])n1CC(C)O (centres undefined) [SECNIDAZOLE]
Not Active
COC(=O)c1ccc(O)cc1 [METHYLPARABEN]
Not Active
